System: RARg homodimer (NR concentration 270 nM)
measurement_notes: PBM binding z-score (relative to random genomic background probes); higher = stronger binding; sequences stand for … in GC…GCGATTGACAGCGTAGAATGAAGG
Each entry below lists one item and its recorded PBM binding z-score value.
The reply should be a number, written without any unit.

Example results:
CTCGAAAGGTCGGTTGAGGTGATTATACGGATAA    2.53
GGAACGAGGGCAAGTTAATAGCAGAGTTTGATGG    2.01
ACTAGTTGGTCAGCTGAGGTCACATACAATTCGG    3.84

INPUT: I'd like to know its PBM binding z-score. The sequence in question is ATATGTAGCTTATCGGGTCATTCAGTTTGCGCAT
OUTPUT: 1.35

INPUT: Try this sequence next: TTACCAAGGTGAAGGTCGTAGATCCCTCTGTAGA
OUTPUT: 1.04

INPUT: // query: GGAACCAGGGCAAGTTGATAGCAGAGTTTGATGG
OUTPUT: 1.52

====

Test system: PPARg:RXRa IVT, anti-PPARg (NR concentration 270 nM, RXRa partner concentration 90 nM)
measurement_notes: PBM binding z-score (relative to random genomic background probes); higher = stronger binding; sequences stand for … in GC…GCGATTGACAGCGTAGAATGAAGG
attribute_measured: PBM binding z-score
# print the numeric value only

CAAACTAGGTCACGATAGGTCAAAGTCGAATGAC    9.21
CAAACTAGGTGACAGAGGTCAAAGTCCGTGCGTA    8.03
ATCGAAAGGTCGAAGGTTAGTATACCCACCCGAA    2.11
TCTAGCAGGCCAGAGGGTCATTCAAGAGGTACGG    0.374
TCATATAGGTAGACAGGTGAAAGTCCGTAAGTTA    1.33

INPUT: # query: PBM binding z-score of entry AGTCAAAGTTCATGACGAGGTAACGTAAAGCACG
OUTPUT: 3.44

INPUT: Same question for TATACAGGGTCAATGGCCAGAGTACGAATGTCGA please.
OUTPUT: 3.99

INPUT: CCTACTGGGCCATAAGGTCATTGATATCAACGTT ?
OUTPUT: 5.28

INPUT: Now the same for ATATGTAGTTTACATCCGGGTCATTCAGGCTATG
OUTPUT: 2.27

====

Tested on: FXR:RXRa (NR concentration 270 nM, RXRa partner concentration 90 nM)
measurement_notes: PBM binding z-score (relative to random genomic background probes); higher = stronger binding; sequences stand for … in GC…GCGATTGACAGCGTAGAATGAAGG
attribute_measured: PBM binding z-score
Write the number on its own, no unit after it.

Field: example entries. Status: answers known.
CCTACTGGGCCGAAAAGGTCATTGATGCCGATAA    3.42
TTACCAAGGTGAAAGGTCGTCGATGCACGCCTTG    3.2
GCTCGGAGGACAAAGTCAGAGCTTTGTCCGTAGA    -0.547
CCTCGGGGGACAGAAGGTCAGAGCTGTCCGCTTT    2.39
TTACCAAGGTGTAGGTCGTTGATCCCTCTGTAGA    0.674

INPUT: Suppose we examine the sequence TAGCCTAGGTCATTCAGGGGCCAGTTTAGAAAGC ; what PBM binding z-score value has been reported?
OUTPUT: 4.19

====

Listing: PBM binding z-score of selected sequences
System: PPARg DBDmut IVT, anti-PPARg (DBD mutation: PPARg1 K132A/R137A, NR concentration 270 nM)
measurement_notes: PBM binding z-score (relative to random genomic background probes); higher = stronger binding; sequences stand for … in GC…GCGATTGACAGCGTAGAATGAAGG
Lab note: write the figure by itself, no unit.

INPUT: Item under review: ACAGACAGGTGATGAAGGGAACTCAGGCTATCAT . Reported PBM binding z-score?
OUTPUT: -0.0521

INPUT: Here is the next sequence: TCGAGTAGCTTACCAATGGGGCATTCAGCTTTCT
OUTPUT: -0.741

INPUT: Quick one: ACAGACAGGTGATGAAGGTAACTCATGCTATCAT
OUTPUT: -0.123

INPUT: Let us now turn to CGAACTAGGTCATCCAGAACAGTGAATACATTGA
OUTPUT: 4.45

====

System: PXR:RXRa (NR concentration 270 nM, RXRa partner concentration 90 nM)
measurement_notes: PBM binding z-score (relative to random genomic background probes); higher = stronger binding; sequences stand for … in GC…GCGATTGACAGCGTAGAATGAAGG
attribute_measured: PBM binding z-score
Reply with the value as a number alone.

INPUT: Report PBM binding z-score for CGAACTAGGTCATCCAGGACAGTAAATACATTGA please.
OUTPUT: 2.15

INPUT: Check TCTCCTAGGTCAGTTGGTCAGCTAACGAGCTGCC too.
OUTPUT: 0.732

INPUT: Then what about the sequence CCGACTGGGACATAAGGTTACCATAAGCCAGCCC ?
OUTPUT: 0.0588

INPUT: Then AATACAGGGTCACTACGCCAGAGTAGGTACGAAT ?
OUTPUT: 3.28

INPUT: Param item: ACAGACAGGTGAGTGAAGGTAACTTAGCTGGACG
OUTPUT: -0.213

INPUT: And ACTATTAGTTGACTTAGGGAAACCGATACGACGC ?
OUTPUT: -0.145

INPUT: Now the same for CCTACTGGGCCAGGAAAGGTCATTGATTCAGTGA
OUTPUT: 4.78

INPUT: Now consider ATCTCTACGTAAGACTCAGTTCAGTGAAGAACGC and answer again.
OUTPUT: 1.09

INPUT: One more sequence: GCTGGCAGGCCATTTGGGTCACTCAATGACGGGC
OUTPUT: 0.654

INPUT: // query: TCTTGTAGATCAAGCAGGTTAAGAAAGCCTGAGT
OUTPUT: 0.519

INPUT: What do you have for ATATGTAGGTTACATCCGGGTCGTTCAGGCTATG ?
OUTPUT: 1.64

INPUT: Moving on to the next sequence: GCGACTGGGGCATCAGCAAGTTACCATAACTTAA
OUTPUT: -0.359

====

Some sequences, each annotated with its measured PBM binding z-score.
Test system: LXRb homodimer (NR concentration 270 nM)
measurement_notes: PBM binding z-score (relative to random genomic background probes); higher = stronger binding; sequences stand for … in GC…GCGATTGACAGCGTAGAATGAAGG
Keep the answer to the number alone.

Solved cases (5 shown):
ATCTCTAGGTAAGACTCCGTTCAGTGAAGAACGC    0.894
TGAATGAGGTGATAAGATCAGGGAACGTTGCAAA    -0.466
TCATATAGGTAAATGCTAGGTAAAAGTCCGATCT    0.06
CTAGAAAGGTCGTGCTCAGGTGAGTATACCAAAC    0.336
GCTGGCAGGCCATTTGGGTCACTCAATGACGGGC    -0.843

INPUT: What value of PBM binding z-score has been reported for the following sequence? CCTCCGAGGACAGAAGGTCAGAGCTGTCCGCTTT
OUTPUT: -0.149

INPUT: Also need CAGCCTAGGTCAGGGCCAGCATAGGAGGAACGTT , thanks.
OUTPUT: -1.18

INPUT: Same again, this time with ATCTCTAGGTAACAAGTTTAGTGAAAGAGAGGAC
OUTPUT: 0.657

====

System: RARa:RXR (NR concentration 270 nM, RXRa partner concentration 90 nM)
measurement_notes: PBM binding z-score (relative to random genomic background probes); higher = stronger binding; sequences stand for … in GC…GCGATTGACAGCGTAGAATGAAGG
Assign y to entries whose PBM binding z-score meets or exceeds 1; assign n to the rest.

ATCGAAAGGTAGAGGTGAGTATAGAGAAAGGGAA    n

INPUT: Quick check: does TAGCCTAGGTCACTGGGCCAGTATAGTACGCATC have PBM binding z-score greater than or equal to 1?
OUTPUT: y

INPUT: Same for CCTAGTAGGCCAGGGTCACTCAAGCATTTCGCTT
OUTPUT: y

INPUT: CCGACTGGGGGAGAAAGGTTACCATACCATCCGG ?
OUTPUT: y

INPUT: And then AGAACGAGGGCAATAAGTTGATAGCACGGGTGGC , what is it?
OUTPUT: n

INPUT: Now this one: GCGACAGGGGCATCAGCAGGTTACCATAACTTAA
OUTPUT: y

INPUT: What about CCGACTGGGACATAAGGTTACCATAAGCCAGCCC ?
OUTPUT: n

====

System: VDR:RXRa (NR concentration 270 nM, RXRa partner concentration 90 nM)
measurement_notes: PBM binding z-score (relative to random genomic background probes); higher = stronger binding; sequences stand for … in GC…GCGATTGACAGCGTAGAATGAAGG
# label = true if PBM binding z-score >= 0.7 else false

Completed entries (count: 4):
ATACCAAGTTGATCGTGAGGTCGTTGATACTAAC    true
ATATCTAGGTAACAAGTTCAGTGAAAGAGAGGAC    true
CGAACTATGTCAGAACAGGACAGTGAAGGATGAT    false
GATATAGGGTCAAGGCCAGAGTACGCGTATTGAT    true

Proceed to the following item.
INPUT: Does the reported PBM binding z-score for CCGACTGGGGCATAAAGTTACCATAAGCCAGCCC fall at or above the 0.7 mark?
OUTPUT: false
